The origin of these recorded values is the supplement of paper PMC11908140.

B1: library; numbered along this chain (parent)
chain: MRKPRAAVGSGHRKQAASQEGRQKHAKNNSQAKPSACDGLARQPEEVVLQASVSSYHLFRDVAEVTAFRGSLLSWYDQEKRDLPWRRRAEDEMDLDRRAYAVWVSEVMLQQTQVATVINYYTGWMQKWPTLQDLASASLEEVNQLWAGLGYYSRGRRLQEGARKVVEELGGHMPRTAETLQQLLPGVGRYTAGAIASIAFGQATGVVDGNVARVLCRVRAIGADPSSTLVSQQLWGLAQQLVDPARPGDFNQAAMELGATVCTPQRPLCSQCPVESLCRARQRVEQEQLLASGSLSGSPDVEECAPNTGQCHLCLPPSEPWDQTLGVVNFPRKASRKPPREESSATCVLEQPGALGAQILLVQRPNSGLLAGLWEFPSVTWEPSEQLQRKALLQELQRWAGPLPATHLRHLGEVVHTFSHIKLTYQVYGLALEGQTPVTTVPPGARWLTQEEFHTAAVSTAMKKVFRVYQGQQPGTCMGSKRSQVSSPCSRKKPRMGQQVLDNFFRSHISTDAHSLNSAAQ

Variants of: B1
Test: 8OG:A repair function score (normalized; synonymous = 0, nonsense = -1) (normalized log-likelihood score); higher = more repair activity (WT-like);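 further: cells sorted at 72 h after reporter transfection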
Settings: with 8OG:A DNA repair reporter (GFP) in HEK-293 MUTYH KO cells
Provide the recorded 8OG:A repair function score for the entries that follow.
Numbers only.

Go through the list and state 8OG:A repair function score for each entry.
1. N329W
2. T440Y
3. I421D
4. V214T
5. A371G
6. V485C
7. L403G

Result:
-0.525
0.157
-0.852
-0.495
0.0402
0.0143
-0.509
